Molecular target: Serine/threonine-protein kinase ULK1 (Homo sapiens, UniProt O75385); note: in the data inactive means no Kd found up to 30 µM
Sequence (O75385 whole entry): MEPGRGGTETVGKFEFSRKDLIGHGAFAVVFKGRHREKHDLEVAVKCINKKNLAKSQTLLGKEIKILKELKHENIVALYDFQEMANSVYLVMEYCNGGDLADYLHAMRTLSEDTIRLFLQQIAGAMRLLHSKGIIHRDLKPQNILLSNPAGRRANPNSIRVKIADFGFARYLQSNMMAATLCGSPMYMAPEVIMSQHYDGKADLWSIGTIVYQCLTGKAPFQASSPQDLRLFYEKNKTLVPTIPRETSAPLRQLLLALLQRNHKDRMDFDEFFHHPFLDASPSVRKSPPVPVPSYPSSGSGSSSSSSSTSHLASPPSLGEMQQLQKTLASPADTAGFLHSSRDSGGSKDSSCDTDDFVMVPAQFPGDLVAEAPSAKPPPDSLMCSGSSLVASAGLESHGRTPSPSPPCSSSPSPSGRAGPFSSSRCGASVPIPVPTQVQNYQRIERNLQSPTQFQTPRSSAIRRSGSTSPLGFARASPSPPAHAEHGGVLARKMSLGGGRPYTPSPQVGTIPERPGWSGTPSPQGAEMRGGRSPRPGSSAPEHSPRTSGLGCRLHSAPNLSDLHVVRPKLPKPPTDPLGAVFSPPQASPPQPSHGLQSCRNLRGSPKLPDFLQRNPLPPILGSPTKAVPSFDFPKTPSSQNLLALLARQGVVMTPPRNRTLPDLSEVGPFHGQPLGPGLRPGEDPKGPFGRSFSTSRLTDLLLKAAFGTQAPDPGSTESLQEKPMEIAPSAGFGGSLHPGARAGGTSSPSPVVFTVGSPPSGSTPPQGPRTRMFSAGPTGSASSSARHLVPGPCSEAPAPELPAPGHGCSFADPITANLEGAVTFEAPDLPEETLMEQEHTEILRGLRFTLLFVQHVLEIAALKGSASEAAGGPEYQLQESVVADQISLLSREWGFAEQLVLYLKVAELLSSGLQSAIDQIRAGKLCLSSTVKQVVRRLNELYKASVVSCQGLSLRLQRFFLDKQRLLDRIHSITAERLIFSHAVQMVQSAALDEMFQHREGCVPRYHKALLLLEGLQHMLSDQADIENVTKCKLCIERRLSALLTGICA
The source made the active and inactive calls.
Write down the outcome that applies. Available outcomes: label 1 for active, label 0 for inactive

What was the test verdict on `Cc1cc(C(=O)Nc2cc(Oc3ccc4nc(NC(=O)C5CC5)cn4n3)ccc2C)n(C)n1` ? label 0

What was the test verdict on `CN(c1ncccc1CNc1nc(Nc2ccc3c(c2)CC(=O)N3)ncc1C(F)(F)F)S(C)(=O)=O` ? label 0

What was the test verdict on `CCN(CCCOc1ccc2c(Nc3cc(CC(=O)Nc4cccc(F)c4)n[nH]3)ncnc2c1)CCOP(=O)(O)O` ? label 0

What was the test verdict on `O=C(O)c1ccc2c(c1)nc(Nc1cccc(Cl)c1)c1ccncc12` ? label 1

What was the test verdict on `CNC(=O)c1ccc(Nc2ncc(C(F)(F)F)c(NCc3nccnc3N(C)S(C)(=O)=O)n2)cc1` ? label 0

What was the test verdict on `COc1cc2ncnc(Nc3ccc(O)cc3)c2cc1OC` ? label 0

What was the test verdict on `CC[C@@](C)(Nc1ccnc(-c2c[nH]c3ncccc23)n1)C(=O)NCC(F)(F)F` ? label 0

What was the test verdict on `COc1cccc(Nc2ncnn3ccc(CN4CC[C@@H](N)[C@H](O)C4)c23)c1` ? label 0

What was the test verdict on `C#Cc1cccc(Nc2ncnc3cc4c(cc23)OCCOCCOCCO4)c1` ? label 0

What was the test verdict on `C=CC(=O)Nc1cccc(Nc2nc(Nc3ccc(N4CCN(C(C)=O)CC4)cc3OC)ncc2C(F)(F)F)c1` ? label 0
